- Test system: SF-539 CNS
- Test Name: NCI tumour cell line growth inhibition, 48 h; in the data active = GI50 below about 0.43 µM; inactive = the rest
Outcome codes: true (1) = active, false (0) = inactive

>  <Compound>
CC1=CC(C)(C)Nc2ccc(Cc3ccc4c(c3)C(C)=CC(C)(C)N4)cc21

>  <Group>
false (0)

$$$$
>  <Compound>
O=C1C(Cl)=C(Nc2cc(Cl)ccc2O)C(=O)N1Cc1ccccc1

>  <Group>
false (0)

$$$$
>  <Compound>
Cc1ccnc2c(NC(C)CCCN)cc(O)c(O)c12 (stereo unspecified)

>  <Group>
false (0)

$$$$
>  <Compound>
CC(=O)O[C@@H]1C2=C(C)C3(CC3)[C@@](C)(O)C(=O)C2=C[C@@]1(C)CO

>  <Group>
false (0)

$$$$
>  <Compound>
COc1cc2c3c(n(CCN4CCOCC4)c(=O)c2cc1OC)-c1ccccc1C3=O

>  <Group>
false (0)

$$$$
>  <Compound>
CN(C)CC1C(=O)O[C@H]2[C@H]1CC/C(COC(=O)NCc1ccc(Cn3c(=O)sn(CCCI)c3=O)cc1)=C\CC[C@@]1(C)O[C@@H]21 (stereo partly specified)

>  <Group>
false (0)

$$$$
>  <Compound>
Cc1c(Cl)cccc1NC(=O)c1sc2nc3c(cc2c1N)C(=O)CCC3

>  <Group>
true (1)

$$$$
>  <Compound>
CC(=O)CCc1ccc(Oc2c3c(nc4ccccc24)OCC3)cc1

>  <Group>
false (0)

$$$$
>  <Compound>
COc1cc2c(NC3CCN(C(C)C)CC3)nc(C3CCCCC3)nc2cc1OCCCN1CCCC1

>  <Group>
false (0)

$$$$
>  <Compound>
Cc1cc(Cl)nc(N(CCCNc2ccnc3cc(Cl)ccc23)Cc2cccs2)n1

>  <Group>
false (0)

$$$$
>  <Compound>
Cc1cc2c3c([n+](C)c4ccc(F)cc4c3c1)-c1cc(F)ccc1N2C

>  <Group>
false (0)

$$$$
